Item-by-item account of koff
- Measured target: T1, human Nectin-4 extracellular antigen hNectin-4-His (human, UniProt Q96NY8 32-349)
- T1 construct: C-terminal 8xHis tag included
- T1 sequence: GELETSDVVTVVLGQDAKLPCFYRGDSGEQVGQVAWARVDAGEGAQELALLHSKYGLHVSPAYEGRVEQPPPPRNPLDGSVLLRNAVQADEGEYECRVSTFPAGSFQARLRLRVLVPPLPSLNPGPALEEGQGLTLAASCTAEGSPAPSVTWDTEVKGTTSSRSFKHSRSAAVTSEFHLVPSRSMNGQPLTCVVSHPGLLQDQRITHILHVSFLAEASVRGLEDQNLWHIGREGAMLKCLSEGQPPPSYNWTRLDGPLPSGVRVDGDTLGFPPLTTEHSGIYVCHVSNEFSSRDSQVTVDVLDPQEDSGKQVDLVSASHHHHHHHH
- Protocol details: SPR, antibody on Protein A chip, 1:1 fit
Value expressed in s⁻¹; do not type the unit.

Give the measured koff for antibody 10F4-2C12 (antibody, human IgG1, kappa, V domains shown) VH: EVQLVESGGGLVQPGGSLRLSCAASGYNFGDYSMSWVRQAPGKGLEWVSVIDTTSAYTRYADSVKGRFTISRDNSKNTLYLQMNSLRAEDTAVYYCAREYSDVVDYVSVRTPLDYWGQGTLVTVSS VL: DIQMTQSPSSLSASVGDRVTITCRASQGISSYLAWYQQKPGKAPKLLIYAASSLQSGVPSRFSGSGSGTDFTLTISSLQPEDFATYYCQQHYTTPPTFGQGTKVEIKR 0.000304

For the binder antibody 1G8-2G8 (antibody, human IgG1, kappa, V domains shown) VH: EVQLVESGGGLVQPGGSLRLSCAASGFNFTNYAMSWVRQAPGKGLEWVSRISTYGDTTHYADSVKGRFTISRDNSKNTLYLQMNSLRAEDTAVYYCARQTEDRSYGYDLDYWGQGTLVTVSS VL: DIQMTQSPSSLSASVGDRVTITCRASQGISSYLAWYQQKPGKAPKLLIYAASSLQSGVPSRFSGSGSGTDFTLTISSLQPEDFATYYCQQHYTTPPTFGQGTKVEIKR , give its reported koff. 0.00142
